Just for reference, patent EP4700022A1 is where these values come from.

Test system: testosterone level in NCI-H295R cells
Procedure text: cells
Assay type: cell-based
Condition description: Homo sapiens, 72 h, read-out: Testosterone level in H295R (Elisa) inh.% 1000 nM
# inhibition at 1 µM annotations
Property name: inhibition at 1 µM

smiles_representation=CS(=O)(=O)N1CC(OC(=O)N2CCC(COc3ccc(CN4Cc5ccc(C(F)(F)F)cc5C4)c4c3S(=O)(=O)CC4)CC2)C1 property_name="inhibition at 1 µM" obs_value=74.6%
smiles_representation=CS(=O)(=O)N1CCC(CCOc2cc(CN3Cc4ccc(C5CC5)cc4C3)ccn2)CC1 property_name="inhibition at 1 µM" obs_value=89.4%
smiles_representation=CS(=O)(=O)N1CCC(c2cc3oc(CN4Cc5ccc(C(F)(F)F)cc5C4)cc(=O)c3o2)CC1 property_name="inhibition at 1 µM" obs_value=80.9%
smiles_representation=O=C(N[C@H]1CC[C@H](CCOc2cc(CN3Cc4ccc(C(F)(F)F)cc4C3)ccn2)CC1)C1CC1 property_name="inhibition at 1 µM" obs_value=75%
smiles_representation=COc1cc(CN2Cc3ccc(C(F)(F)F)cc3C2)cc2cc(C3CCN(C(=O)OC4CC4)CC3)oc12 property_name="inhibition at 1 µM" obs_value=78.4%
smiles_representation=O=C(CC(F)(F)F)N[C@H]1CC[C@H](CCOc2cc(CN3Cc4ccc(C(F)(F)F)cc4C3)ccn2)CC1 property_name="inhibition at 1 µM" obs_value=78%
smiles_representation=[2H]C([2H])([2H])C(=O)N[C@H]1CC[C@H](Cc2cc3oc(CN4Cc5ccc(C(F)(F)F)cc5C4)cc(=O)c3o2)CC1 property_name="inhibition at 1 µM" obs_value=72%
smiles_representation=O=C(N[C@H]1CC[C@H](CCOc2cc(CN3Cc4ccc(C(F)(F)F)cc4C3)ccn2)CC1)[C@@H]1CC1(F)F property_name="inhibition at 1 µM" obs_value=86.9%
smiles_representation=O=C(OC1CC1)N1CCC(/C=C/c2coc(CN3Cc4cc5c(cc4C3)CCC5)cc2=O)CC1 property_name="inhibition at 1 µM" obs_value=77.8%
smiles_representation=O=C(N[C@H]1CC[C@H](c2cc3oc(CN4Cc5ccc(C(F)(F)F)cc5C4)cc(=O)c3o2)CC1)C1CC(F)(F)C1 property_name="inhibition at 1 µM" obs_value=88%
smiles_representation=CS(=O)(=O)N1CCC(COc2ccc(CN3Cc4ccccc4C3)c3cccnc23)CC1 property_name="inhibition at 1 µM" obs_value=89.2%
smiles_representation=CS(=O)(=O)N1CC(OC(=O)N2CCC3(CC2)CC(Oc2cc(CN4Cc5ccc(C(F)(F)F)cc5C4)ccn2)C3)C1 property_name="inhibition at 1 µM" obs_value=81%
smiles_representation=O=C(OC1CC1)N1CCC2(CC1)CC(Oc1cc(CN3Cc4ccc(C(F)(F)F)cc4C3)ccn1)C2 property_name="inhibition at 1 µM" obs_value=78.2%
smiles_representation=CS(=O)(=O)N1CCC(C2=COc3cc(CN4Cc5ccc(C(F)(F)F)cc5C4)ccc3O2)CC1 property_name="inhibition at 1 µM" obs_value=83%
smiles_representation=CS(=O)(=O)N1CC(OC(=O)N2CCC(CCOc3cc(CN4Cc5ccsc5C4)ccn3)CC2)C1 property_name="inhibition at 1 µM" obs_value=67.9%
smiles_representation=CS(=O)(=O)N1CCC(CCn2ccc(CN3Cc4ccc(C5CC5)cc4C3)cc2=O)CC1 property_name="inhibition at 1 µM" obs_value=89.4%
smiles_representation=O=C(N[C@H]1CC[C@H](CCOc2cc(CN3Cc4ccc(C(F)(F)F)cc4C3)ccn2)CC1)OC1CC1 property_name="inhibition at 1 µM" obs_value=78.5%
smiles_representation=O=C(OC1CC1)N1CCC(CCOc2ccnc(CN3Cc4ccc(C(F)(F)F)cc4C3)c2)CC1 property_name="inhibition at 1 µM" obs_value=76%
smiles_representation=O=C(N[C@H]1CC[C@H](Cc2cc3oc(CN4Cc5ccc(C(F)(F)F)cc5C4)cc(=O)c3o2)CC1)C1CC1 property_name="inhibition at 1 µM" obs_value=76.7%
smiles_representation=O=C(OC1CC1)N1CCC(Cc2cc3oc(CN4Cc5ccc(C(F)(F)F)cc5C4)cc(=O)c3o2)CC1 property_name="inhibition at 1 µM" obs_value=82.6%
smiles_representation=O=C(OC1CC1)N1CCC(COc2ccc(CN3Cc4ccc(C(F)(F)F)cc4C3)c3ccc(F)nc23)CC1 property_name="inhibition at 1 µM" obs_value=62%
smiles_representation=CS(=O)(=O)N1CC(OC(=O)N2CCC(COc3ccc(CN4Cc5ccc(C(F)(F)F)cc5C4)c4c3OCCO4)CC2)C1 property_name="inhibition at 1 µM" obs_value=77%
smiles_representation=COc1nc(CN2Cc3ccc(C(F)(F)F)cc3C2)ccc1OCC1CCN(C(=O)C2CC(F)(F)C2)CC1 property_name="inhibition at 1 µM" obs_value=90.4%
smiles_representation=N#Cc1cc(CN2Cc3ccc(C(F)(F)F)cc3C2)cc2cc([C@H]3CC[C@H](NC(=O)C4CC4)CC3)oc12 property_name="inhibition at 1 µM" obs_value=80%
smiles_representation=CS(=O)(=O)N1CC(OC(=O)N2CCC(CCOc3cc(CN4Cc5ccc(C(F)(F)F)cc5C4)ccn3)CC2)C1 property_name="inhibition at 1 µM" obs_value=65.2%
smiles_representation=[2H]C([2H])([2H])n1cc(C(=O)N[C@H]2CC[C@H](CCOc3cc(CN4Cc5ccc(C(F)(F)F)cc5C4)ccn3)CC2)cn1 property_name="inhibition at 1 µM" obs_value=76.4%
smiles_representation=N#Cc1cc(CN2Cc3ccc(C(F)(F)F)cc3C2)cc2cc(C3CCN(C(=O)OC4CC4)CC3)oc12 property_name="inhibition at 1 µM" obs_value=85.5%
smiles_representation=O=C(N[C@H]1CC[C@H](CCOc2cc(CN3Cc4ccc(C(F)(F)F)cc4C3)ccn2)CC1)[C@H]1CC1(F)F property_name="inhibition at 1 µM" obs_value=76.3%
smiles_representation=CS(=O)(=O)N1CCC(CCOc2cc(CN3Cc4ccccc4C3)ccn2)CC1 property_name="inhibition at 1 µM" obs_value=85.4%
